biological target: cynomolgus monkey heterodimeric single-chain CD3εγ extracellular domain (cynomolgus monkey, UniProt Q95LI5 22-117; Q95LI7 23-113); experiment: SPR, rabbit IgG captured, cyno single-chain CD3εγ ECD injected
Sequence (Q95LI7 other isoform, or with tags, fused parts or gaps): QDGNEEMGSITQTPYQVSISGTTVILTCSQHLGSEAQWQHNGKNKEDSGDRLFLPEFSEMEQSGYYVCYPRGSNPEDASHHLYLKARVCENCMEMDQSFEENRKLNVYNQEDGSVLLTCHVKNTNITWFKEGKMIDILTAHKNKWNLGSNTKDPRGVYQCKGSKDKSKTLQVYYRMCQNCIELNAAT

BINDER	kon [M⁻¹ s⁻¹]
clone-09 (antibody, V domains shown, Recombinant rabbit IgG) VH: QSLEESGGRLVTPGTPLTLTCTVSGFPLNRYAMLWVRQAPGKGLEWIGLITRADKKYYASWAKGRFTISKTSTTVDLEITGPTTEDTATYFCARRHYNTDGYPVAIGDLWGPGTLVTVSS VL: AQVLTQTPSSVSAAVGGTVTISCQSNENIYSNNRLSWFQQKPGQPPNQLIYSASSLASGVPSRFKGSGSGTQFTLTISDLECDDAATYYCQGEFNCNSADCFTFGGGTEVVVKG	232000
clone-10 (antibody, V domains shown, Recombinant rabbit IgG) VH: QSLEESGGRLVTPGTPLTLTCTVSGFPLSSFAMLWVRQAPGKGLEWIGMIMRAHNMYYASWAKGRFTISKTSTTVDLEITSPTTEDTATYFCARRHYNTYGYPIAIGDLWGPGTLVTVSS VL: AQVLTQTPSSVSAAVGGTATISCQSNENIYSNNRLSWFQQKAGQPPNQLIYSASSLASGVPSRFKGSGSGTQFTLTISDLECDDAATYYCQGEFSCSSADCFTFGGGTEVVVKG	321000
clone-11 (antibody, V domains shown, Recombinant rabbit IgG) VH: QSLEESGGRLVTPGTPLTLTCTVSGFPLSSYAMGWFRQAPGKGLEWIGMILRADNTYYASWVNGRFTISKTSTTVDLKITSPTTEDTATYFCARRHYNTYGYPVAIGDLWGPGTLVTVSS VL: AQVLTQTPSSVSAAVGGTVTINCQSSQSVYNNNRLSWFQQKPGQPPKLLIYTASSLASGVPSRFKGSGSGTEFTLTISDLECADAATYYCQGEFSCSSADCFTFGGGTEVVVKG	363000
